Data credit: the supplement of paper PMC10065799

Biological target: Fyn (UniProt P06241)
Sequence (P06241 whole entry, looked up): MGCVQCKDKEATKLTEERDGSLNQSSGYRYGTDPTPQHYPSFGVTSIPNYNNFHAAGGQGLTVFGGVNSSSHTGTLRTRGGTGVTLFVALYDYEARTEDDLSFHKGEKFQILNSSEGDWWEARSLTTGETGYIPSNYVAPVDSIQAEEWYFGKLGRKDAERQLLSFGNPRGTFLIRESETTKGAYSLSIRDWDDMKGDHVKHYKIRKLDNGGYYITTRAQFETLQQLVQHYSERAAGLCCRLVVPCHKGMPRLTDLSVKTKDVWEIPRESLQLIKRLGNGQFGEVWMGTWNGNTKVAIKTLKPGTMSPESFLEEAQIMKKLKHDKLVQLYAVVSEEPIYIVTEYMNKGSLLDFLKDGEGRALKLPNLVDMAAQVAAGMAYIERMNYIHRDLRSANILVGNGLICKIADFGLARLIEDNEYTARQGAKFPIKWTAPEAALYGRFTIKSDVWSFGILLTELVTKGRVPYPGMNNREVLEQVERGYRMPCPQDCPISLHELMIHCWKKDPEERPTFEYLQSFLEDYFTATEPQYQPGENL
Test: phosphorylation enrichment, bacterial display (enrichment ratio); higher = better substrate or ligand; peptides without Tyr show the background
OBSERVABLE: phosphorylation enrichment

The cases that follow already have their phosphorylation enrichment on record.
TLKVGYTEKQR [EPHA3_Y659]; 0.27
PQDSAYHSGIQ [FLG_Y3940_S3935P]; 0.459
RDMMDYMLQGV [CYP21A2_Y259]; 0.673

Req: What does the data say about its phosphorylation enrichment? Entry: EKESCYILHSS [PATJ_Y783_E779K]
Resp: 0.549

Req: Also PTTMTYFPHFD [HBA1_Y43_K41M] ?
Resp: 0.554

Req: // repeat for LANNEYYFQVC and report
Resp: 1.43

Req: Another sequence to check: PDKRIYQFTAS [SKAP2_Y197_A202S]
Resp: 0.826

Req: Please give the result for VDSNPYSRLVA [UBA5_Y53_M57V] too.
Resp: 0.553

Req: What do we get for ANVKWYRNGRE ?
Resp: 0.43

---

Target: FGFR3 (UniProt P22607)
Sequence (P22607 whole entry, looked up): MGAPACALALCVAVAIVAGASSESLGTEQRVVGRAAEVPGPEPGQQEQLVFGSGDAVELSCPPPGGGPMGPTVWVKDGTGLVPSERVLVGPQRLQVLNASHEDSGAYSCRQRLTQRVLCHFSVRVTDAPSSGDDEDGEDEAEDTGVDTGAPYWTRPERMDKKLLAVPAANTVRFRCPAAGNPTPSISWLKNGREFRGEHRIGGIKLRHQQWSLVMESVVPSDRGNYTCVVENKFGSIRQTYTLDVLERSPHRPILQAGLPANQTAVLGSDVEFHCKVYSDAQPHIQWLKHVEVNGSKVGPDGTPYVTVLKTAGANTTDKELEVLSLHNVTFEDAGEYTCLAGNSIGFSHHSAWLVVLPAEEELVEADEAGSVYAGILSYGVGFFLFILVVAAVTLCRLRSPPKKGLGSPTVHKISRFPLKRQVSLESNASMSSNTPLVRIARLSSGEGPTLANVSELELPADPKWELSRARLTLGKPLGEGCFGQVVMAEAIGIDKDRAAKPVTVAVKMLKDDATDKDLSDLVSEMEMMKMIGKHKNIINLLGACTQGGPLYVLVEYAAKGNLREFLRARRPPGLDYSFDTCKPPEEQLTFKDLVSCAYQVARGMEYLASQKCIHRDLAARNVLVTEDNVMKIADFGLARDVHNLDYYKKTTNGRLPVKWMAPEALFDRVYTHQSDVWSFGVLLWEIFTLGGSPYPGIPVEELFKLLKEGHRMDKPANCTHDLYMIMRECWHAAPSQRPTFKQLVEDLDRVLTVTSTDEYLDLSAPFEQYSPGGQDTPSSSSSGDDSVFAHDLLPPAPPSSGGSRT
Test: phosphorylation enrichment, bacterial display (enrichment ratio); higher = better substrate or ligand; peptides without Tyr show the background
The entries below come with measured phosphorylation enrichment values attached.
// print number alone

CDSSGYWTPEE [PAPPA2_Y908]; 0.783

Req: For the sequence shown here, EGNEQYEGFCV [GRIA3_Y451_R450Q_YF] , give the reported phosphorylation enrichment.
Resp: 0.822

---

Target: EPHB2 (UniProt P29323)
Sequence (P29323 whole entry, looked up): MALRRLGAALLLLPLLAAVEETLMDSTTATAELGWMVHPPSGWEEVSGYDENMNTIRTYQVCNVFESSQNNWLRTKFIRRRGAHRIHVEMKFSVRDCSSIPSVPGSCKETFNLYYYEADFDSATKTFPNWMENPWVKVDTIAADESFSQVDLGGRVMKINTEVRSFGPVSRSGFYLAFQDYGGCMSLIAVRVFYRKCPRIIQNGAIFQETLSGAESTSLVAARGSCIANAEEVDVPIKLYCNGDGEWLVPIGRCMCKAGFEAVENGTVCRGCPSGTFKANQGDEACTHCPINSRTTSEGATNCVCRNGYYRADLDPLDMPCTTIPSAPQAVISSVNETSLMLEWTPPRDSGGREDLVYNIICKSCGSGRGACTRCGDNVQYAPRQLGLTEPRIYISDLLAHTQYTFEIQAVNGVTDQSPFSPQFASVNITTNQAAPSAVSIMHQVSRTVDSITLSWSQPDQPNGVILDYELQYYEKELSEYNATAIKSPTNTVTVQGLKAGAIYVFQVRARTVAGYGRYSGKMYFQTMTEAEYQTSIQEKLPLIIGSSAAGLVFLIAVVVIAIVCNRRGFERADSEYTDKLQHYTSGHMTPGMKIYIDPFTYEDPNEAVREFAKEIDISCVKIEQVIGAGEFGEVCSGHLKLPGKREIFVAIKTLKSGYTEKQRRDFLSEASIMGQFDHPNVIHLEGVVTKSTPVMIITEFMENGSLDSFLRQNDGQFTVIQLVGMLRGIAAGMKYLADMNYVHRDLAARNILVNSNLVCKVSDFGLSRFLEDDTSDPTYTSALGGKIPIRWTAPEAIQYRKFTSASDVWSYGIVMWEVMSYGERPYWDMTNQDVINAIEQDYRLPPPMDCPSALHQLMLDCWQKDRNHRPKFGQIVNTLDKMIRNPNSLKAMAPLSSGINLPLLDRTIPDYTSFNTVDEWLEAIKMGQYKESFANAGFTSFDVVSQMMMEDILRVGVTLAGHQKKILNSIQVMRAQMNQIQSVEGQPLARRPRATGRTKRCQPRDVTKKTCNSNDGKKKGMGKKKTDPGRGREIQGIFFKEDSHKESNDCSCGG
Assay: phosphorylation enrichment, bacterial display (enrichment ratio); higher = better substrate or ligand; peptides without Tyr show the background
Parameter phosphorylation enrichment: see the listing below.

Below, each entry is followed by its recorded phosphorylation enrichment result.
ECKFLYSRKEG [PTPN11_Y263_L261F]; 0.594
CPTIHYNFMCN [TP53_Y234_T230P_YF]; 0.596
DVLVEYQEEGR [GNS_Y416_G418E]; 0.617
KRLAVYIDEEA [EPM2A_Y304_P301L]; 0.615
CDKEFYSVHNK [MET_Y1235_Y1230C_YF]; 0.586
GSERDYTFEEL [EIF2S2_Y174_YF]; 0.598

Req: Recorded phosphorylation enrichment for TEDAEYDVQSK [PTCHD3_Y335_P333A] , please?
Resp: 0.609

Req: Follow-up item: NIRKKYFRAIL [CHD7_Y1217_Q1214R_YF]
Resp: 0.6

---

Molecular target: FGFR1 (UniProt P11362)
Sequence (P11362 whole entry, looked up): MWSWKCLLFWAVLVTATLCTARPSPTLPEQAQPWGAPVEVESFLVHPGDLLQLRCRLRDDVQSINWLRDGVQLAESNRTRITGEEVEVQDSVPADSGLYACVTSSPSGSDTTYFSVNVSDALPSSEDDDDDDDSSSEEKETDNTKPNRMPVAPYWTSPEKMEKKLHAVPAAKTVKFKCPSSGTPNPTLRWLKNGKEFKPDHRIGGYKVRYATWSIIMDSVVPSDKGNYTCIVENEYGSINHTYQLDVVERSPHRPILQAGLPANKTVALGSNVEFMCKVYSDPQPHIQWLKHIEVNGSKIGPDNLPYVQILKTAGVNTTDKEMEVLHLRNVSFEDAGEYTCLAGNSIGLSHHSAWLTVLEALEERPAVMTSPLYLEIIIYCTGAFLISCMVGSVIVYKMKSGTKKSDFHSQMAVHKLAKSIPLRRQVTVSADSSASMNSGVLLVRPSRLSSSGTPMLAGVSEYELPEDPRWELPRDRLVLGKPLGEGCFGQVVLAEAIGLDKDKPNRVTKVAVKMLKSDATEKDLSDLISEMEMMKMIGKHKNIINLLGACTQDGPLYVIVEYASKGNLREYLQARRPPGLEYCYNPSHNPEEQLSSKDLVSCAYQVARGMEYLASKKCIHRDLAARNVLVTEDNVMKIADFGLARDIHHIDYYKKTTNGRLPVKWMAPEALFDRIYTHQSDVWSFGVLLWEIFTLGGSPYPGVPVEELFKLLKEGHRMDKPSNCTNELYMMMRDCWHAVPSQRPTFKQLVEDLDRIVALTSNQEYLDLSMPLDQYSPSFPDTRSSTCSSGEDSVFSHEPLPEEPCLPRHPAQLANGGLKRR
Experiment: phosphorylation enrichment, bacterial display (enrichment ratio); higher = better substrate or ligand; peptides without Tyr show the background
OBSERVABLE: phosphorylation enrichment
A bare number is all that is needed in reply.

// known answers, use as guide
KLQQWYREPRS [GPI_Y17_H20P]; 0.36
REGAKYVSHCA [ASS1_Y113_G117C]; 0.643
IRNRDYDDIDD [TTYH2_Y424_T419I]; 0.7
AGQEDDDRLRP [RAC1_Y64_Y64D]; 0.607
FTNRSYDLDFD [MYC_Y12_N11S_YF]; 0.685
VVVTKYCKEEL [ATP7B_Y1078_A1074V]; 0.58
YIPSNYVAEDR [FRK_Y104]; 0.634
DEDFLYREELA [POR_Y575_YF]; 0.536
IFHLSYHHNCE [PDE6B_Y227_L228H_YF]; 0.499
RYFTTYDTNGR [CLCA1_Y665]; 0.709

Req: Request body: readout phosphorylation enrichment, system FGFR1 (UniProt P11362), query KRFRIYHLATS [BRCA2_Y3009_YF] . Return the value.
Resp: 0.358

Req: Ok, now KIVQDYLEKFF [MMP8_Y36_T32I_YF]
Resp: 0.616

Req: Also LRRFIYRPPDR [OTOF_Y1231] ?
Resp: 0.808

Req: Also SDQRRYSLIDP [CLIP2_Y972_R977P] ?
Resp: 0.533

Req: Same lookup for SRDDYYETIAM [NPY1R_Y347_D346Y] , please.
Resp: 8.35

Req: How about this sequence: HGVSSYDTVIS [LDLR_Y465]
Resp: 0.801

---

Biological target: Hck (UniProt P08631)
Sequence (P08631 whole entry, looked up): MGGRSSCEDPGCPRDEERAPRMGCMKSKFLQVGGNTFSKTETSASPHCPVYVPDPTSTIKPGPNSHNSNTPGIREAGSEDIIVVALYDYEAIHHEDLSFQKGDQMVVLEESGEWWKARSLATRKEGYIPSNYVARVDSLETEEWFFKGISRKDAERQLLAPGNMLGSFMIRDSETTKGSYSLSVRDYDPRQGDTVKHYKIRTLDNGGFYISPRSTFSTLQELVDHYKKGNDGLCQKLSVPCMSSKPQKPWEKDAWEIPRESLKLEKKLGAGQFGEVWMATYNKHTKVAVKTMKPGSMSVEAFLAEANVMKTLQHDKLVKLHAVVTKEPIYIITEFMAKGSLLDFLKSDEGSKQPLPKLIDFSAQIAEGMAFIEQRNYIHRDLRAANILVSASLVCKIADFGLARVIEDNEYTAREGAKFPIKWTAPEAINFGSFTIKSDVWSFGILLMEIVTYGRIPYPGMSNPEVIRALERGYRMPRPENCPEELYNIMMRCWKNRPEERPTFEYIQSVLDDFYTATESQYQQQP
Assay: phosphorylation enrichment, bacterial display (enrichment ratio); higher = better substrate or ligand; peptides without Tyr show the background
Kindly return T if reported phosphorylation enrichment is no lower than 0.6; return F if it is lower.

LQEQNYPAVDS [FAM114A1_Y115_L116P]; T

Req: Does phosphorylation enrichment meet or surpass 0.6 for VDSNPYSRLMA [UBA5_Y53] ?
Resp: T

Req: Same question for SVVVPYEPPEL [TP53_Y220_V225L] please.
Resp: F

Req: Also need VFDMLYQLANL [USP24_Y1087] , thanks.
Resp: T

Req: Please answer likewise for SDQRRYSLIDR [CLIP2_Y972]
Resp: F

Req: One more sequence: RLTEGYTGPFK [ZNF862_Y181_I178T]
Resp: F

Req: And for VDGSVYKLHPS [GCK_Y413] ?
Resp: T

Req: Can you check KPGLKYVTFGN [GALNTL5_Y404_YF] next?
Resp: F

---

System: c-Src
Assay: phosphorylation enrichment, bacterial display (enrichment ratio); higher = better substrate or ligand; peptides without Tyr show the background
Listing of recorded phosphorylation enrichment by entry.
# print the numeric value only

MPVDGYISGLL [PAK6_Y81]; 0.487
VTRAKYFIRDE [GNAS_Y339]; 0.375
AKRKGYDMRVD [NEB_Y2770]; 0.363
FRDMDYRSFPH [RBM10_Y41_R46H_YF]; 0.436
ATATEYHTTSH [SLC4A1_Y46_D45E]; 0.413
DKEKWYPLGNS [PIK3C2G_Y1438]; 0.345
VDSNPYSRLVA [UBA5_Y53_M57V]; 1.02
EWKQNYEESQS [MYH7_Y1460_K1459N]; 0.461
HVLEEYKPKQG [SAXO2_Y37_P34L]; 0.424
FCRITYDIFPF [INTS13_Y67_M66T_YF]; 2.36

Req: Which measured phosphorylation enrichment value corresponds to LAVGDYMRRQK [ATM_Y1915_V1913G] ?
Resp: 0.503

Req: Likewise for KKRSVYIKVLF [CC2D2A_Y683_L684I] ?
Resp: 0.304

Req: Same again, this time with RFLRGYRQHAY [HLA-A_Y137_D140H]
Resp: 1.11

Req: Same for CEHRGCLFLAI [TEK_Y897_Y897C_YF]
Resp: 0.282

Req: Can you handle VSLEAYCKHKY [RXRA_Y403_A398V] next?
Resp: 0.46

---

Listed sequences paired with reported phosphorylation enrichment
Target: EPHB1 (UniProt P54762)
Sequence (P54762 whole entry, looked up): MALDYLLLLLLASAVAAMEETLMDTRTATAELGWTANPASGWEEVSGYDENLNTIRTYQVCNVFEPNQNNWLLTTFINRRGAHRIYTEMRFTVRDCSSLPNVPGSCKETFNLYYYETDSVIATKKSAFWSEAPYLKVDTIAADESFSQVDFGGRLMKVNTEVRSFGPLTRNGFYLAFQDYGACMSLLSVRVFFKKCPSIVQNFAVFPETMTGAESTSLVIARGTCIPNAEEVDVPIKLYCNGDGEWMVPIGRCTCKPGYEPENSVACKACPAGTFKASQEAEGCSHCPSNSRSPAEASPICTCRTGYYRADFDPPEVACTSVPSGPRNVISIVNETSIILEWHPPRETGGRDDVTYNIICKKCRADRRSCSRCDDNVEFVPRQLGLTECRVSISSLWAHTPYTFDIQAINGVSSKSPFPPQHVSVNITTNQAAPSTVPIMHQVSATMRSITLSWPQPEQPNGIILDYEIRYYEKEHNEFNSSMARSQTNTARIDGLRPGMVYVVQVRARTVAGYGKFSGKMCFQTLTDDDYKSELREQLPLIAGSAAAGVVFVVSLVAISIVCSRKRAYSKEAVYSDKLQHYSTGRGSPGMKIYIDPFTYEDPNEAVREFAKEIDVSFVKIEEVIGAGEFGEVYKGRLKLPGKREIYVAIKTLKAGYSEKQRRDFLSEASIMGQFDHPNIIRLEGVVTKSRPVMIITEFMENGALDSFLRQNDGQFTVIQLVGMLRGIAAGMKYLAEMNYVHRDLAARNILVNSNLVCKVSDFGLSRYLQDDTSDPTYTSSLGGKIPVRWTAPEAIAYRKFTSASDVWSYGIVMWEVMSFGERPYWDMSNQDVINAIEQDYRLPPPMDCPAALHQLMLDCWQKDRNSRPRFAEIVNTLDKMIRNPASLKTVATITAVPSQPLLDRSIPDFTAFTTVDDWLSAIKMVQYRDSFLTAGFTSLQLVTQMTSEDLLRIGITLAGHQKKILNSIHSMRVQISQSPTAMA
Assay: phosphorylation enrichment, bacterial display (enrichment ratio); higher = better substrate or ligand; peptides without Tyr show the background
In your answer, state the number alone without any accompanying words.

Below are worked cases with known answers.
FRDMDYRSFPH [RBM10_Y41_R46H_YF]; 0.442
PINLFYLMDLS [ITGB2_Y131_D128N_YF]; 0.752

Consider the additional sequence presented here.
Req: Query: phosphorylation enrichment; subject: VFDMLYQLANL [USP24_Y1087]
Resp: 1.32

---

System: Fer (mouse)
Experiment: phosphorylation enrichment, bacterial display (enrichment ratio); higher = better substrate or ligand; peptides without Tyr show the background
Listing of entries alongside the reported phosphorylation enrichment.
Response field accepts a number only; no unit should be typed.

Examples from the recorded data:
DDKEYYSVHNK [MET_Y1235_Y1230D]; 0.603
CHSDDYVHISI [TSC1_Y406_L411I]; 0.597
TVQVAYYTVMM [SPATA17_Y83_M86V]; 1.59

Req: Which phosphorylation enrichment value is on record for LNPVVYTLRNA [OR4C12_Y285] ?
Resp: 0.856

---

Target: MERTK (UniProt Q12866)
Assay: phosphorylation enrichment, bacterial display (enrichment ratio); higher = better substrate or ligand; peptides without Tyr show the background
Class Yes: phosphorylation enrichment at least 0.5. Class No: phosphorylation enrichment below 0.5.

Req: Would you say TQKLAYVELQQ [CENPF_Y700_M701V] shows phosphorylation enrichment at minimum 0.5?
Resp: No

Req: Try the sequence VVIVLYFSLWK [SLC6A2_Y249]
Resp: No

Req: # repeat for NAMRRYIEEFQ [MNS1_Y244]
Resp: No

Req: Another sequence: AKQVGCENAGT [PC_Y304_Y304C]
Resp: No

---

Molecular target: Grb2 SH2 (UniProt P62993)
Sequence (P62993 whole entry, looked up): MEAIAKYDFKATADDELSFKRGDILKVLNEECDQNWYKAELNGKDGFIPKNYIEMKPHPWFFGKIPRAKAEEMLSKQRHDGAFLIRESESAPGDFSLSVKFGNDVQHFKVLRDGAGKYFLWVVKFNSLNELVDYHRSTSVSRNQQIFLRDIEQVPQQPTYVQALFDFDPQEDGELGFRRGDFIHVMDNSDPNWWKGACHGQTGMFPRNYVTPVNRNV
Experiment: SH2 binding enrichment of the phosphorylated peptide, bacterial display (enrichment ratio); higher = better substrate or ligand; peptides without Tyr show the background
OBSERVABLE: SH2 binding enrichment
Lab note: jot the number down without any unit.

In the examples that follow, each entry is paired with its recorded SH2 binding enrichment.
VIEQRYNETWL [SLC2A4_Y56_S55R]; 0.92
SVVVPYEPPEF [TP53_Y220_V225F]; 0.88

Req: For PSAELYSFALP [PDGFRB_Y716_N718Y_YF] , what is its reported SH2 binding enrichment?
Resp: 0.911
